Where these numbers come from: patent US5834415A

tgt: Savinase (Lederbergia lenta, UniProt P29600)
Construct: purchased Novo Nordisk A/S
Sequence (P29600 whole entry): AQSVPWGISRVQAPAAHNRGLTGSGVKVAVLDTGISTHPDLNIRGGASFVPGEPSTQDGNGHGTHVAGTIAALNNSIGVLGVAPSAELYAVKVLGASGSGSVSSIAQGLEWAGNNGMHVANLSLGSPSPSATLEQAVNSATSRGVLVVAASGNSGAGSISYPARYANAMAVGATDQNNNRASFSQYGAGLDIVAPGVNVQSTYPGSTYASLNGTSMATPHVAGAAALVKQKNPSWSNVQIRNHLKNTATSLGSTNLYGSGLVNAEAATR
method_description: Determination of Ki, inhibition of Savinase
Format: biochemical, Bacillus
setup_conditions: substrate SAAPFpNA; 0.1M Tris-HCl pH 8.6; 25° C.; Savinase 1×10^-10 - 3×10^-10 M; read-out: Ki Savinase
observable: Ki (µM)

P: OB(O)c1cccc2ccccc12
Q: OB(O)c1ccc2ccccc2c1
R: OB(O)c1ccc2cc(O)ccc2c1 [6-hydroxynaphthalene-2-boronic acid]
-- ask Given 3 molecules, produce a descending ranking by Ki. List labels; respect the requested ordering.
-- reply P, R, Q
(P: 900 µM, R: 600 µM, Q: 300 µM)
